Where these numbers come from: ChEMBL document CHEMBL3763148

TARGET_SYSTEM: Phosphatidylinositol 4,5-bisphosphate 3-kinase catalytic subunit alpha isoform (Homo sapiens)
Sequence (P42336 whole entry, canonical isoform): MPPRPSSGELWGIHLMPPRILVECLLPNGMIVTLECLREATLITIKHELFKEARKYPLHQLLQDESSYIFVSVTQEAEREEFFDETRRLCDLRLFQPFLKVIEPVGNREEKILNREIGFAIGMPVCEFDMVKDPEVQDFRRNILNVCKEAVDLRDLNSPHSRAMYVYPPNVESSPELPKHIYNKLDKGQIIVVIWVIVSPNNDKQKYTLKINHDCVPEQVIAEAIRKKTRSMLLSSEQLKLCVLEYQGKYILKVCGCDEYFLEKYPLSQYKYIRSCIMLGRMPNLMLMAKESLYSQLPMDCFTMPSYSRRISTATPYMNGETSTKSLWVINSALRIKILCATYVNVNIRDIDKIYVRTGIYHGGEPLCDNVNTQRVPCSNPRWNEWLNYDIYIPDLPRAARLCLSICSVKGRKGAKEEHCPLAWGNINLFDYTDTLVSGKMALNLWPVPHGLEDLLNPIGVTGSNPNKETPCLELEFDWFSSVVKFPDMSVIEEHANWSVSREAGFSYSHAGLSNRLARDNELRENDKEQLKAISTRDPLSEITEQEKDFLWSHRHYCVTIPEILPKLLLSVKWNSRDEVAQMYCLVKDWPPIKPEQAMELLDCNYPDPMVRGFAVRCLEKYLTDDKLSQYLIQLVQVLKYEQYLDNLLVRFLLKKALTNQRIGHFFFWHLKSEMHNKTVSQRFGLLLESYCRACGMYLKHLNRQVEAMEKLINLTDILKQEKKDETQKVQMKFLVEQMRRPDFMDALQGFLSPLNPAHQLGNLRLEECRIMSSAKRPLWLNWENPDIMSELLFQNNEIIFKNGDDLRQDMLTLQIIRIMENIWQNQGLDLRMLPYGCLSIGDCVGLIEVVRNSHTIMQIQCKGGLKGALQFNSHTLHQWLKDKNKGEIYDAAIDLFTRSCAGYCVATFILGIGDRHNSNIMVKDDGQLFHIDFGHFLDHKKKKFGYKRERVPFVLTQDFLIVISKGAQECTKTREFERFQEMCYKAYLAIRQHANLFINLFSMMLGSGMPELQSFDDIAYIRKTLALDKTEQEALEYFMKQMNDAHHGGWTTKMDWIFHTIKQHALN
PROTOCOL_DESCRIPTION: Inhibition of PI3Kalpha (unknown origin) at 10 uM incubated for 60 mins by kinase-glo luminescence assay
EXPERIMENTAL_ENDPOINT: inhibition

> print(dat)
                                     smiles  value.reported
1  O=c1nc(N2CCOCC2)oc2ccc(-c3cccc4c3oc3ccccc34)cc12              5%
2     O=c1nc(N2CCOCC2)oc2ccc(-c3ccccc3)cc12              2%
3  O=c1nc(N2CCOCC2)oc2ccc(-c3ccc(CO)cc3)cc12              7%
4  O=c1nc(N2CCOCC2)oc2ccc(-c3cccc4ccccc34)cc12             10%
5  O=c1nc(N2CCOCC2)oc2ccc(-c3cccc(-c4ccccc4)c3)cc12             11%
6  O=c1nc(N2CCOCC2)oc2c(-c3cccc4c3sc3ccccc34)cc(Cl)cc12              0%
7  O=c1nc(N2CCOCC2)oc2c(-c3cccc4ccccc34)cccc12             34%
8  O=c1nc(N2CCOCC2)oc2ccc(-c3ccc(Cl)cc3)cc12             10%
9  O=c1nc(N2CCOCC2)oc2ccc(/C=C/c3ccccc3)cc12              3%
